Target: Glucocorticoid receptor (Homo sapiens, UniProt P04150)
Experiment: Transactivation of glucocorticoid receptor ligand binding domain (unknown origin) transfected in human HeLa cells assessed as activation of NP-1 by GAL4 luciferase reporter gene assay
Format: cell-based
Below is a list of entries, each paired with its recorded log10 EC50 value.
Could you please treat all values as log10 of EC50 in nM?

Example results:
CC(C)(C(=O)Nc1nncs1)[C@@H](c1ccccc1)c1ccc2c(cnn2-c2cccnc2)c1 : 2.12
CC(C)(C(=O)Nc1nncs1)[C@@H](c1ccccc1)c1ccc2c(cnn2-c2ccc(F)cc2)c1 : 0.76
CC(C)(C(=O)Nc1nccs1)[C@@H](c1ccccc1)c1ccc2c(cnn2-c2ccc(F)cc2)c1 : 0.88
CC(C)CCn1ncc2cc(C(c3ccccc3)C(C)(C)C(=O)Nc3nncs3)ccc21 (racemic) : 2.12
CC(C)(C(=O)Nc1nncs1)C(c1ccccc1)c1ccc2c(cnn2-c2ccc(Cl)cc2)c1 (racemic) : 2.41

Reported Glucocorticoid receptor (Homo sapiens, UniProt P04150) log10 EC50 for item CC(C)(C(=O)Nc1nncs1)[C@@H](c1ccccc1)c1ccc2[nH]ncc2c1 was 2.32

Per the reported Glucocorticoid receptor (Homo sapiens, UniProt P04150) data, CC(C)(C(=O)Nc1nccs1)[C@H](c1ccccc1)c1ccc2c(cnn2-c2ccc(F)cc2)c1 has log10 EC50 of 2.64

###

System: Progesterone receptor (Homo sapiens, UniProt P06401) | Read-out: Ki
Sequence (P06401 whole entry): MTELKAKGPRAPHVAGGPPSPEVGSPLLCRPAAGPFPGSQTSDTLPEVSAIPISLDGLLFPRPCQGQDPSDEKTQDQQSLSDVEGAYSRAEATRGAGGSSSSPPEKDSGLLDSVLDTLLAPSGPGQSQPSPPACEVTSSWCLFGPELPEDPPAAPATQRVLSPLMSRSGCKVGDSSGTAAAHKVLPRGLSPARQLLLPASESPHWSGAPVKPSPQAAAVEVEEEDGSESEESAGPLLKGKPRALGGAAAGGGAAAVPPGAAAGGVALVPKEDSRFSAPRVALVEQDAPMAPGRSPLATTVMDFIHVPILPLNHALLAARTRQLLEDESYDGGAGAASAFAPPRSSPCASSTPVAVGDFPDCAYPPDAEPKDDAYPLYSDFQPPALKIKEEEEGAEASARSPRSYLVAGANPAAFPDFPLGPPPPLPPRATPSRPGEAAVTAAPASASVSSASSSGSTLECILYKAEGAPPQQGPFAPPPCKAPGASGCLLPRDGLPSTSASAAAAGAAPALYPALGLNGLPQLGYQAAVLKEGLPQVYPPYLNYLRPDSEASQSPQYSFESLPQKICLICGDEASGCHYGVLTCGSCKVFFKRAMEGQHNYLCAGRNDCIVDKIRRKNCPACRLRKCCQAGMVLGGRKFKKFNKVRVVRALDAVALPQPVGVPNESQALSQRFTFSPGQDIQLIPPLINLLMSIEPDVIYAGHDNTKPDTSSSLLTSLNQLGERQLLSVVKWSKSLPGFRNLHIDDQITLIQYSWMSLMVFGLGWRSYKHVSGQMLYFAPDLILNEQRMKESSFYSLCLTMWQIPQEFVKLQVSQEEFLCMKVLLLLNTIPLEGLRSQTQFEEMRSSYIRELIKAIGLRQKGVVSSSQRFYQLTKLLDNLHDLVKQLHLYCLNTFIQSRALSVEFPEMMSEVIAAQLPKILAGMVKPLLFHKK
Value expressed in nM; do not type the unit.

CC(C(=O)Nc1nncs1)[C@@H](c1ccccc1)c1ccc2c(cnn2-c2ccc(F)cc2)c1 (single isomer, unassigned; diastereomer 3) : 22

Entry CC(C)(C(=O)Nc1nncs1)[C@H](c1ccccc1)c1ccc2c(cnn2-c2ccc(F)cc2)c1 under Progesterone receptor (Homo sapiens, UniProt P06401) had Ki of 56

###

Biological target: Glucocorticoid receptor (Homo sapiens)
Sequence (whole entry): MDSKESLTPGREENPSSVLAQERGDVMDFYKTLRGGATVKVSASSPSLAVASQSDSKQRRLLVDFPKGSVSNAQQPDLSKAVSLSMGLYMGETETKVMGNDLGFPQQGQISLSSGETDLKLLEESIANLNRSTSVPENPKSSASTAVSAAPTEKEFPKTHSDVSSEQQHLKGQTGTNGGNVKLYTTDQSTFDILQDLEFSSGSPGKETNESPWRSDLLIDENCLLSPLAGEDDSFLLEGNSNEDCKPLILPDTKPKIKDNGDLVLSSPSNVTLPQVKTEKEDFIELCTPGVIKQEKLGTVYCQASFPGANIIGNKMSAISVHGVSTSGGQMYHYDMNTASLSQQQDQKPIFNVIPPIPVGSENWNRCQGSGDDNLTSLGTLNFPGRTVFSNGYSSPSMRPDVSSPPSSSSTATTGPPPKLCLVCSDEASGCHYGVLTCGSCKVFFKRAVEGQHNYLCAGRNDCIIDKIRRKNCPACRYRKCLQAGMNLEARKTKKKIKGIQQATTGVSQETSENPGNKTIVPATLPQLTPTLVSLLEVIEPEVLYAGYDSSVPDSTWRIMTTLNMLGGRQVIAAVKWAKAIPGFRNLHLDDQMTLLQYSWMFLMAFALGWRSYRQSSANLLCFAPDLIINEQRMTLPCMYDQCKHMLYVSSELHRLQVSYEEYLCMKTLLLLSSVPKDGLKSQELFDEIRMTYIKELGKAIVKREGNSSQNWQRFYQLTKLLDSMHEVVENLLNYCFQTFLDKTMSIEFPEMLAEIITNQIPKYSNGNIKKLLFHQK
Assay: Agonist activity at glucocorticoid receptor in human A549 cells assessed as inhibition of PMA-induced AP-1 activation by luciferase reporter gene assay relative to dexamethasone
Type: cell-based
Measured Efficacy values are reported for all entries that follow.
Unit % implied. Number only.

Solved entries (count: 5):
CC(C(=O)Nc1nncs1)[C@@H](c1ccccc1)c1ccc2c(cnn2-c2ccc(F)cc2)c1 (single isomer, unassigned; diastereomer 2) : 103
CC(C)(C(=O)Nc1ccsc1)C(c1ccccc1)c1ccc2c(cnn2-c2ccc(F)cc2)c1 (racemic) : 68
CC(C)(C(=O)Nc1nncs1)[C@@H](c1ccccc1)c1ccc2c(cnn2-c2ccc(F)cc2)c1 : 93
CC(C)(C(=O)Nc1nncs1)[C@H](c1ccccc1)c1ccc2[nH]ncc2c1 : 35
CC(C)(C(=O)Nc1nccs1)C(c1ccc2c(cnn2-c2ccc(F)cc2)c1)C1CCCC1 (racemic) : 47

Efficacy reported for this compound CC(C)(C(=O)Nc1nncs1)C(c1ccccc1)c1ccc2c(cnn2CCO)c1 (racemic) : 32

# Efficacy of COc1ccc(-n2ncc3cc(C(c4ccccc4)C(C)(C)C(=O)Nc4nncs4)ccc32)cc1 (racemic) = 76

Values were extracted from ChEMBL document CHEMBL2424628.
